- Assay system: T1, Human CD137 ECD (human)
- T1 construct: entry includes C-terminal His-tag and biotin acceptor peptide; also called human CD137 extracellular domain; 4-1BB
- T1 sequence (chain, as listed by the source limits assumed): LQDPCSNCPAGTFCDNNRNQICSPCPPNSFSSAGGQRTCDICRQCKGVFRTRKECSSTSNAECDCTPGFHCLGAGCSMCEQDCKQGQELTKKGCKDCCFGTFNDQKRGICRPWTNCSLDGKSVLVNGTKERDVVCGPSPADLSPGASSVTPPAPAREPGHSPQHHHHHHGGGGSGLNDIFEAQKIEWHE
- Test: Biacore SPR, vs parent H183/L072
Metric name: fold change of affinity (fold)
Respond with the bare value in fold.

Field: example entries. Status: answers known.
| Binder | Value |
| --- | --- |
| H183/L072 VL S26E (antibody, name in Kabat numbering, V domains shown, Dual-Ig) VH: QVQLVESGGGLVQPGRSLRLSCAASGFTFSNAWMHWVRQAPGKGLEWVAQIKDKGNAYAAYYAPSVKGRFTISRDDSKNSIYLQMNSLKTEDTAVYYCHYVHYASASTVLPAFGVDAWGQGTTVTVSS VL: DIVMTQSPLSLPVTPGEPASISCQAEQELVHMNRNTYLHWYQQKPGQAPRLLIYKVSNRFPGVPDRFSGSGSGTDFTLKISRVEAEDVGVYYCAQGTSVPFTFGQGTKLEIK | 0.8 |
| H183/L072 VL L33P (antibody, name in Kabat numbering, V domains shown, Dual-Ig) VH: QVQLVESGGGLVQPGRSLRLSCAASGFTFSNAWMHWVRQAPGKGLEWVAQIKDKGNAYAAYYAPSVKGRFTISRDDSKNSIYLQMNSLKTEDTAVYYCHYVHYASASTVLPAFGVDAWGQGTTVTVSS VL: DIVMTQSPLSLPVTPGEPASISCQASQELVHMNRNTYPHWYQQKPGQAPRLLIYKVSNRFPGVPDRFSGSGSGTDFTLKISRVEAEDVGVYYCAQGTSVPFTFGQGTKLEIK | 0.2 |
| H183/L072 VL V27cE (antibody, name in Kabat numbering, V domains shown, Dual-Ig) VH: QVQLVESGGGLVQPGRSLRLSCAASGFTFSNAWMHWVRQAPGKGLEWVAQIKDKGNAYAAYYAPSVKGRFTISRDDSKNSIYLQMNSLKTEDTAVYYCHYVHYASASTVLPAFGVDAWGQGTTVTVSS VL: DIVMTQSPLSLPVTPGEPASISCQASQELEHMNRNTYLHWYQQKPGQAPRLLIYKVSNRFPGVPDRFSGSGSGTDFTLKISRVEAEDVGVYYCAQGTSVPFTFGQGTKLEIK | 0.7 |
| H183/L072 VL N30G (antibody, name in Kabat numbering, V domains shown, Dual-Ig) VH: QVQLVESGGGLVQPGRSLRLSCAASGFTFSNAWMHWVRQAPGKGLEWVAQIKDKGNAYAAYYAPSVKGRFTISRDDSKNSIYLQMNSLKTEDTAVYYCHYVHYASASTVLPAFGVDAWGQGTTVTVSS VL: DIVMTQSPLSLPVTPGEPASISCQASQELVHMNRGTYLHWYQQKPGQAPRLLIYKVSNRFPGVPDRFSGSGSGTDFTLKISRVEAEDVGVYYCAQGTSVPFTFGQGTKLEIK | 0.9 |
| H183/L072 VL L33F (antibody, name in Kabat numbering, V domains shown, Dual-Ig) VH: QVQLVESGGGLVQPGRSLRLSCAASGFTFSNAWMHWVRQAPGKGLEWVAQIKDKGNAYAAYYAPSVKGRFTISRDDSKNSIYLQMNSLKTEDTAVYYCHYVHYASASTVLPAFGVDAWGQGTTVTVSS VL: DIVMTQSPLSLPVTPGEPASISCQASQELVHMNRNTYFHWYQQKPGQAPRLLIYKVSNRFPGVPDRFSGSGSGTDFTLKISRVEAEDVGVYYCAQGTSVPFTFGQGTKLEIK | 0.3 |
| H183/L072 VL H27dL (antibody, name in Kabat numbering, V domains shown, Dual-Ig) VH: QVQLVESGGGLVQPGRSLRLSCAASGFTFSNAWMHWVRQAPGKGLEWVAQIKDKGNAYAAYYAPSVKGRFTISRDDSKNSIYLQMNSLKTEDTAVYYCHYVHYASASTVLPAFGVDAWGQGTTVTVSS VL: DIVMTQSPLSLPVTPGEPASISCQASQELVLMNRNTYLHWYQQKPGQAPRLLIYKVSNRFPGVPDRFSGSGSGTDFTLKISRVEAEDVGVYYCAQGTSVPFTFGQGTKLEIK | 0.6 |

[in] Consider the binder H183/L072 VL K50W (antibody, name in Kabat numbering, V domains shown, Dual-Ig) VH: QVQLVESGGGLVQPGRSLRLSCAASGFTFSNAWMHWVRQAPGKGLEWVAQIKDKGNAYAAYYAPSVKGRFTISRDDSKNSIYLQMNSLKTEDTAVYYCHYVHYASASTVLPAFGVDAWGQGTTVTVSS VL: DIVMTQSPLSLPVTPGEPASISCQASQELVHMNRNTYLHWYQQKPGQAPRLLIYWVSNRFPGVPDRFSGSGSGTDFTLKISRVEAEDVGVYYCAQGTSVPFTFGQGTKLEIK and give its measured fold change of affinity.
[out] 0

[in] Consider the binder H183/L072 VL N28W (antibody, name in Kabat numbering, V domains shown, Dual-Ig) VH: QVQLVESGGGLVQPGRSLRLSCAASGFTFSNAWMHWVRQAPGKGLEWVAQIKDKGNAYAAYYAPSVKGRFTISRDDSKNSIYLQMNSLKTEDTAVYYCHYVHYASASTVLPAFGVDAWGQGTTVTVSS VL: DIVMTQSPLSLPVTPGEPASISCQASQELVHMWRNTYLHWYQQKPGQAPRLLIYKVSNRFPGVPDRFSGSGSGTDFTLKISRVEAEDVGVYYCAQGTSVPFTFGQGTKLEIK and give its measured fold change of affinity.
[out] 0.3

[in] Consider the binder H183/L072 VL N30I (antibody, name in Kabat numbering, V domains shown, Dual-Ig) VH: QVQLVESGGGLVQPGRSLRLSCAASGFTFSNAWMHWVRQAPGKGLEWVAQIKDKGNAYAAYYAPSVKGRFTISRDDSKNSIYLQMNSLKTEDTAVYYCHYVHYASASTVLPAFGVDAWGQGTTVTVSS VL: DIVMTQSPLSLPVTPGEPASISCQASQELVHMNRITYLHWYQQKPGQAPRLLIYKVSNRFPGVPDRFSGSGSGTDFTLKISRVEAEDVGVYYCAQGTSVPFTFGQGTKLEIK and give its measured fold change of affinity.
[out] 0.3

[in] Consider the binder H183/L072 VL N28G (antibody, name in Kabat numbering, V domains shown, Dual-Ig) VH: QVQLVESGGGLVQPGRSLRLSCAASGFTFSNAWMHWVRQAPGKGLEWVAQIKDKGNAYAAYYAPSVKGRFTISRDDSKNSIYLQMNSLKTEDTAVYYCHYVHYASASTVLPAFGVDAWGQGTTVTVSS VL: DIVMTQSPLSLPVTPGEPASISCQASQELVHMGRNTYLHWYQQKPGQAPRLLIYKVSNRFPGVPDRFSGSGSGTDFTLKISRVEAEDVGVYYCAQGTSVPFTFGQGTKLEIK and give its measured fold change of affinity.
[out] 0.5
